Entries and their TGI
# Tested on: NCI-H226 lung
# protocol_description: NCI tumour cell line growth inhibition, 48 h

Cc1nc2ccc(S(=O)(=O)NS(=O)(=O)c3ccc(-c4ccccc4)cc3)cc2c(=O)n1NS(=O)(=O)c1ccc(-c2ccccc2)cc1 ... > 100 µM
CCOC(=O)C1Cc2ccc3c4c(ccc(c24)C1)CC(C(=O)OCC)C3 ... > 100 µM

With those in mind, consider the next compound.
Problem: Bench note: what TGI did CCOC(=O)NC(Nc1cc(Cl)ccc1OC)(C(F)(F)F)C(F)(F)F show?
Result: > 100 µM

---

# System: CCRF-CEM leukemia
# protocol_description: NCI tumour cell line growth inhibition, 48 h
endpoint: TGI

Worked cases, answers included:
CN(Cc1ccc(F)cc1)c1ccc(CO)c(Cl)c1 ... > 100 µM
CC1(C)CC(=O)c2c(nc3c(ccc4ccccc43)c2-c2ccc(NC(=O)CCC(=O)Nc3ccc(-c4c5c(nc6c4ccc4ccccc46)CC(C)(C)CC5=O)cc3)cc2)C1 ... > 100 µM
O=[N+]([O-])c1ccc(C2ON=C(c3ccccc3)N2C23CC4CC(CC(C4)C2)C3)cc1 (stereo not given) ... > 10 µM
O=C(Cn1cc(Br)c(=O)[nH]c1=O)c1ccc(-c2ccccc2)cc1 ... > 20.2 µM
CC1(C)OC(=S)N(c2ccccc2)C12C=Cc1cc3ccccc3nc1S2 (stereo not given) ... > 100 µM

Problem: Bench note: what TGI did CCn1cc(/C=C2\Oc3cc(OCC#N)ccc3C2=O)c2cc(OC)ccc21 show?
Result: > 100 µM

Problem: Bench note: what TGI did N#Cc1c2ccc([N+](=O)[O-])cc2c(=O)n2c1[nH]c1ccc(C(F)(F)F)cc12 show?
Result: > 100 µM
